# Study target: PDGFRalpha(V561D) (Homo sapiens, UniProt P16234, V561D)
# Construct: recombinant human PDGFRalpha, amino acids 550end containing the V561 D mutation; 6His (N)
# Sequence (P16234 550-1089 V561D): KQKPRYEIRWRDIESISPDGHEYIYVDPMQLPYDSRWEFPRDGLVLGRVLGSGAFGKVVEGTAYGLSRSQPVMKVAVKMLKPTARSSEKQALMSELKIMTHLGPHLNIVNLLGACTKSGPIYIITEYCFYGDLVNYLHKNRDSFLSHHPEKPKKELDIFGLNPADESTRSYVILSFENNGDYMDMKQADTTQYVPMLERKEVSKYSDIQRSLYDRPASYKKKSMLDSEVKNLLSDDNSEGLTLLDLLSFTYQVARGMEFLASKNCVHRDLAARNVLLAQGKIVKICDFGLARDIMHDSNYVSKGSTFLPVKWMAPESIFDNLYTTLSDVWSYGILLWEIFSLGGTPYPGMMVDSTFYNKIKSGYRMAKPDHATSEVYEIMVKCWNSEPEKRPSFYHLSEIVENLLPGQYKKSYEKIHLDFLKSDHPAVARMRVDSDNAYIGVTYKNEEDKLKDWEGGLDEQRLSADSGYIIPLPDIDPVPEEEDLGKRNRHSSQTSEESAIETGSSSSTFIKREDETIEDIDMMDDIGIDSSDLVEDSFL
# Measurement protocol: PDGFRalpha(V561D) assay
# Experimental context: recombinant human PDGFRalpha aa 550-end, 200 μM ATP, 1.4E-06 means 1.4×10^−6, read-out: Inhibition (IC50) of PDGFRα (V561D)
# Method: PDGFRalpha(V561D) (N-terminal 6His-tagged, recombinant human PDGFRalpha, amino acids 550end containing the V561 D mutation) is incubated with 8 mM MOPS pH 7.0, 0.2 mM EDTA, 250 μM GGMEDIYEFMGGKKK, 10 mM MgAcetate and [gamma-33P-ATP] (specific activity approx. 500 cpm/pmol, concentration 200 μM). The reaction is initiated by the addition of the MgATP mix. After incubation for 40 minutes at room temperature, the reaction is stopped by the addition of 3% phosphoric acid solution. […]
# log10 of IC50 per record follows
Values below are the log10 of the recorded IC50, with nM as the unit.

{"columns": ["Molecule", "Parameter measured", "Experimental value"],
 "data": [
  ["CN1CCN(c2ccc(-n3cc(-c4cc5ccccc5[nH]c4=O)nn3)cc2)C(=O)C1", "log10 of IC50", 0.85]
]}

Hello, I am looking for reported log10 of IC50 with PDGFRalpha(V561D) (Homo sapiens, UniProt P16234, V561D) for `CN(C)C[C@@H]1CCN(C(=O)c2ccc(-n3cc(-c4cc5cc(F)ccc5[nH]c4=O)nn3)cc2)C1` . Could you help?
2.97
